Documented growth across a set of molecules
Test system: TK-10 renal
Assay: NCI-60 one-dose screen, 48 h (100 = growth as untreated, 0 = no growth, -100 = all killed)
Conditions: 10 µM unless noted
Description: Growth inhibition of the TK-10 human tumor cell line is measured as a screen for anti-cancer activity. Cells are grown in 96 well plates and exposed to the test compound for 48 hours. Compounds are tested at a single concentration, which is 10^-5 M for most compounds. The reported endpoint is percent growth (GI% or GIPRCNT), where numbers from 0 - 100% represent growth inhibition, and numbers from -100% - 0 represent cell death. For example, a value of 40 represents 60% growth inhibition. […]
This is part of a sample that, as a whole, favours compounds with a hit. Of some 83,000 tested, about 20% had one in any assay.
Report as a plain number; the unit % is understood.

c1cc2[nH]ncc2cc1-c1nc2ccc3[nH]ncc3c2c2c1CCC2 : 30.8
CC(NNC(C)c1ccccc1)c1ccccc1 (stereo unspecified) : 105
O=C(CSc1nc2ccccc2[nH]1)c1ccc(N2CCOCC2)cc1 : 118

// next item, growth requested
Prompt line: Request the reported growth associated with COc1ccc(Nc2ncccc2C(=O)NCc2cn(Cc3cccc(Oc4ccccc4)c3)nn2)c(OC)c1
Response line: 64.5

====

Test system: PC-3 prostate
Test: NCI-60 one-dose screen, 48 h (100 = growth as untreated, 0 = no growth, -100 = all killed)
Details: 10 µM unless noted
The panel holds about 83,000 compounds, 20% with a hit somewhere; the sample as a whole holds those more often.
Below, each entry is listed alongside its reported growth.
Response body: numeric value in %, unit text excluded.

The following molecules have reported results that may help.
N#Cc1c(-c2ccccc2)nc(SCC(=O)N2CCN(c3ccccc3)CC2)[nH]c1=O : 95.6
c1cc2[nH]ncc2cc1-c1nc2ccc3[nH]ncc3c2c2c1CCC2 : 54.5
Cc1cc(N/N=C/c2nc(-c3ccc(Br)cc3)oc2C)c2cc(Cl)ccc2n1 : 80.7
COc1ccc(C2CC(c3ccc(OC)cc3OC)=NN2c2ccc(S(N)(=O)=O)cc2)cc1 (stereo unspecified) : 56

Prompt line: Given CCOC(=O)c1ccc(NC(=O)N2CC(C)OC(C)C2)cc1 (stereo unspecified) , state its recorded growth.
Response line: 103

Prompt line: // returns reported growth for input COc1cc(NC(=O)SC2=NCCS2)cc(OC)c1
Response line: 93.6

====

System: HS 578T breast
Assay: NCI-60 one-dose screen, 48 h
Conditions: 10 µM unless noted
Compounds without any hit were thinned out: in the full panel of roughly 83,000, 20% have a hit. Active and inactive are the calls of the source. How the source made its calls: active means growth percent below 10; inactive means the rest.
API: response.call in y = active, n = inactive

Please review the entries below; each comes with its answer.
N/C(=N\C(N)=N\c1nc2ccccc2s1)c1ccncc1 : n
COc1ccc(CNCCCN2C(=O)c3ccc4c5c(ccc(c35)C2=O)C(=O)N(CCCNCCCCNCCCN)C4=O)c(OC)c1OC : n
O=C(Nc1ccncc1)C(=O)c1cn(S(=O)(=O)c2ccc(Br)cc2)c2ccccc12 : n
Nc1ncnc2c1c(-c1ccc(Oc3ccccc3)cc1)nn2C[C@@H]1SSC[C@@H]1O : n
Clc1cccc(-c2cc(-c3ccc4c(c3)OCCO4)[nH]n2)c1 : n

Prompt line: Query: recorded result category for Fc1ccc(Nc2ncnc3ccc(-c4cnc5[nH]ccc5c4)cc23)cc1Cl in this test
Response line: y

Prompt line: Query: recorded result category for O=C1/C(=C/c2ccccc2)CN(C(=O)CCN2CCC(=NO)CC2)C/C1=C\c1ccccc1 in this test
Response line: n

Prompt line: Write down the call the test reported for this molecule. Item: O=C(/C=C/c1ccccc1)c1cccc(O)c1
Response line: n

Prompt line: Identify the outcome logged in this assay for the molecule shown: O=S(=O)(CC(O)(c1ccccc1)c1ccccc1)CC(O)(c1ccccc1)c1ccccc1
Response line: n

Prompt line: Entry CC1CN(c2oc(-c3ccccc3)nc2C#N)CC(C)O1 (stereo unspecified) : call = ?
Response line: n

Prompt line: Hi team, can someone confirm the assay call for COc1ccc(/C=C2\Oc3cc(OCCCN4CCCC4)ccc3C2=O)cc1 ?
Response line: n

Reference for the values: PubChem BioAssay (NCI)
